System: 876862-298-R-J1-PDC complex spheroids, viability % test/control;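 note: spheroids exposed to drugs for 7 days before readout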
Assay explanation: Anticancer human tumor 876862-298-R-J1-PDC patient-derived endometrial carcinoma cell line growth inhibition [CLK]; active = viability on the fitted dose curve at most 10% of control; inactive = the rest
Stated conditions: second compound 0.1 µM; first compound 10 µM
Form entry, call: pick from True (active), False (inactive)

Ask: Check the results log: what was the call for COc1cccc2c1C(=O)c1c(O)c3c(c(O)c1C2=O)CC(O)(C(=O)CO)CC3OC1CC(N)C(O)C(C)O1 (stereo not given) + CNC(=O)c1ccc(Nc2nc(OC3CCCC3)c3c(-c4ccc5nc(C)oc5c4)c[nH]c3n2)c(OC)c1 ?
Result: True

Ask: Check the results log: what was the call for COC1C=CCC(C)C(C)S(=O)(=O)NC(=O)c2ccc3c(c2)N(CC2CCC21)CC1(CCCc2cc(Cl)ccc21)CO3 (stereo not given) + CN1CCN(c2cc(C(=O)Nc3cc4cc(-c5cnn(C)c5)ccc4cn3)ccn2)CC1 ?
Result: False

Ask: Check the results log: what was the call for COc1cccc2c1C(=O)c1c(O)c3c(c(O)c1C2=O)CC(O)(C(=O)CO)CC3OC1CC(N)C(O)C(C)O1 (stereo not given) + CN1CCN(c2cc(C(=O)Nc3cc4cc(-c5cnn(C)c5)ccc4cn3)ccn2)CC1 ?
Result: True

Ask: Check the results log: what was the call for CC(CO)NC(=O)c1cc(-c2ccc(Cl)cc2)nn(-c2cnn(C)c2)c1=O (stereo not given) + CN1CCN(c2cc(C(=O)Nc3cc4cc(-c5cnn(C)c5)ccc4cn3)ccn2)CC1 ?
Result: False

Ask: Check the results log: what was the call for CC(Nc1ccc2c(c1)OCCn1cc(N3C(=O)OCC3C(F)F)nc1-2)C(N)=O (stereo not given) + CNC(=O)c1ccc(Nc2nc(OC3CCCC3)c3c(-c4ccc5nc(C)oc5c4)c[nH]c3n2)c(OC)c1 ?
Result: False

Ask: Check the results log: what was the call for CC(=O)O[C@H]1C(=O)[C@@]2(C)[C@H]([C@H](OC(=O)c3ccccc3)[C@]3(O)C[C@H](OC(=O)[C@H](O)[C@@H](NC(=O)c4ccccc4)c4ccccc4)C(C)=C1C3(C)C)[C@]1(OC(C)=O)CO[C@@H]1C[C@@H]2O + CN1CCN(c2cc(C(=O)Nc3cc4cc(-c5cnn(C)c5)ccc4cn3)ccn2)CC1 ?
Result: False

Ask: Check the results log: what was the call for C=C(F)C(=O)N1CCN(c2nc(OCC3CCCN3C)nc3c2CCN(c2cccc4cccc(Cl)c24)C3)CC1CC#N (stereo not given) + CNC(=O)c1ccc(Nc2nc(OC3CCCC3)c3c(-c4ccc5nc(C)oc5c4)c[nH]c3n2)c(OC)c1 ?
Result: True

Ask: Check the results log: what was the call for C#Cc1c(F)ccc2cc(O)cc(-c3ncc4c(N5CC6CCC(C5)N6)nc(OCC56CCCN5CC(F)C6)nc4c3F)c12 (stereo not given) + CNC(=O)c1ccc(Nc2nc(OC3CCCC3)c3c(-c4ccc5nc(C)oc5c4)c[nH]c3n2)c(OC)c1 ?
Result: False

Ask: Check the results log: what was the call for O=c1[nH]cc(F)c(=O)[nH]1 + CNC(=O)c1ccc(Nc2nc(OC3CCCC3)c3c(-c4ccc5nc(C)oc5c4)c[nH]c3n2)c(OC)c1 ?
Result: False

Ask: Check the results log: what was the call for CC1COCCN1c1cc(C2(S(C)(=N)=O)CC2)nc(-c2ccnc3[nH]ccc23)n1 (stereo not given) + CNC(=O)c1ccc(Nc2nc(OC3CCCC3)c3c(-c4ccc5nc(C)oc5c4)c[nH]c3n2)c(OC)c1 ?
Result: False
